- measurement_conditions: in water, 283.15 K
metric_name: solubility (mole fraction)

>>> quantitative_readout("NC(N)=S")
0.0211

----------
- measurement_conditions: in methanol, 318.15 K
metric_name: solubility (mole fraction)

>>> result("NC(N)=S")
0.0848

----------
- measurement_conditions: in ethyl acetate, 313.15 K
metric_name: solubility (mole fraction)

>>> quantitative_readout("NC(N)=S")
0.00718

----------
- measurement_conditions: in isobutanol, 288.15 K
metric_name: solubility (mole fraction)

>>> quantitative_readout("NC(N)=S")
0.0101

----------
- measurement_conditions: in isobutanol, 293.15 K
metric_name: solubility (mole fraction)

>>> result("NC(N)=S")
0.0116
